Values from patent US20150291598A1

# Test system: P. falciparum (NF54 or 3D7 strain)
# experiment.notes: Assay for P. falciparum proliferation in infected human blood cells (SYBR Green)
# Assay type: cell-based, Plasmodium falciparum
# experimental.setup: Plasmodium falciparum, Erythrocyte, 72 h, NF54 or 3D7 infected human erythrocytes, 72 hours; read-out: EC50 (nM), inhibitory efficacy in delaying P. falciparum proliferation in infected human blood cells
measured.property: EC50 (nM)
Please give a number only; it is taken to be in nM.

Guide cases for EC50, answers given:
Cc1cnc(Cl)c(N(C)C(=O)c2cn3c(-c4ccc(C(F)(F)F)cc4)cnc3cn2)c1	4040
CN(C(=O)c1cn2c(-c3ccc(C#N)cc3)c(C(F)(F)F)nc2cn1)c1ccc(C#N)cc1	5790
CN(C(=O)c1cn2c(-c3ccc4c(cnn4C)c3)cnc2cn1)c1ccc(Cl)nc1	522
CN(C(=O)c1cn2c(-c3ccc(-n4cccn4)cc3)cnc2cn1)c1ccc(F)cc1	673

Lab note: next compound to report on.
Briefly, EC50 measured for CN(C(=O)c1cn2c(-c3ccc(Cl)c(F)c3)cnc2cn1)c1ccc(C#N)cc1 : 1300
